Molecular target: Aromatase (Homo sapiens)
Sequence (P11511 whole entry): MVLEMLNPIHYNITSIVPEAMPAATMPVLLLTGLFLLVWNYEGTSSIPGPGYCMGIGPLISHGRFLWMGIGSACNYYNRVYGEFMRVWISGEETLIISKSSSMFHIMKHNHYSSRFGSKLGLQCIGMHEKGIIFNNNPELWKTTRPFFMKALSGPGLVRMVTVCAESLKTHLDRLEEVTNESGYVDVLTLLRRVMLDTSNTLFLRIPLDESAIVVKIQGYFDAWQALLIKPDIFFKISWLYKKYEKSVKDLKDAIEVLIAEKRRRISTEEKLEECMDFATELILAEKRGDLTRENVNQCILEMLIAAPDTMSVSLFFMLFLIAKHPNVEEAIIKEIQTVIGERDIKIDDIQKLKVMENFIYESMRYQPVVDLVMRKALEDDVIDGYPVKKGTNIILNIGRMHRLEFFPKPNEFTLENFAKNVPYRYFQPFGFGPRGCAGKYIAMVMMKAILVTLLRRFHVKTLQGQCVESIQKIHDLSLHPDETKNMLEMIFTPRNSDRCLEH
measuredParameter: inhibition at 0.75 µM (%)
Write down the numeric answer in % and omit the unit.

Known results for compounds:
CCCSC1=C2CCC3C4CCC(=O)C4(C)CCC3C2(C)CCC1=O (stereo not given)
42
CCCCCSC1=C2CCC3C4CCC(=O)C4(C)CCC3C2(C)CCC1=O (stereo not given)
4
CCSC1=C2CCC3C4CCC(=O)C4(C)CCC3C2(C)CCC1=O (stereo not given)
45
CC12CCC3C(CCC4=C(Sc5ccccc5)C(=O)CCC43C)C1CCC2=O (stereo not given)
55
CC12CCC3C(CCC4=C(Sc5ccc(Br)cc5)C(=O)CCC43C)C1CCC2=O (stereo not given)
4
CC12CCC3C(CCC4=C(SCc5ccccc5)C(=O)CCC43C)C1CCC2=O (stereo not given)
5

Determine its reported inhibition at 0.75 µM: C[C@]12CCC(=O)C(O)=C1CC[C@@H]1[C@@H]2CC[C@]2(C)C(=O)CC[C@@H]12 [FORMESTANE]
74

Determine its reported inhibition at 0.75 µM: CC12CCC3C(CCC4=C(Sc5ccc([N+](=O)[O-])cc5)C(=O)CCC43C)C1CCC2=O (stereo not given)
0

Determine its reported inhibition at 0.75 µM: CSC1=C2CCC3C4CCC(=O)C4(C)CCC3C2(C)CCC1=O (stereo not given)
61

Determine its reported inhibition at 0.75 µM: COc1ccc(SC2=C3CCC4C5CCC(=O)C5(C)CCC4C3(C)CCC2=O)cc1 (stereo not given)
0

----------
Target: Aromatase (Homo sapiens)
Sequence (P11511 whole entry): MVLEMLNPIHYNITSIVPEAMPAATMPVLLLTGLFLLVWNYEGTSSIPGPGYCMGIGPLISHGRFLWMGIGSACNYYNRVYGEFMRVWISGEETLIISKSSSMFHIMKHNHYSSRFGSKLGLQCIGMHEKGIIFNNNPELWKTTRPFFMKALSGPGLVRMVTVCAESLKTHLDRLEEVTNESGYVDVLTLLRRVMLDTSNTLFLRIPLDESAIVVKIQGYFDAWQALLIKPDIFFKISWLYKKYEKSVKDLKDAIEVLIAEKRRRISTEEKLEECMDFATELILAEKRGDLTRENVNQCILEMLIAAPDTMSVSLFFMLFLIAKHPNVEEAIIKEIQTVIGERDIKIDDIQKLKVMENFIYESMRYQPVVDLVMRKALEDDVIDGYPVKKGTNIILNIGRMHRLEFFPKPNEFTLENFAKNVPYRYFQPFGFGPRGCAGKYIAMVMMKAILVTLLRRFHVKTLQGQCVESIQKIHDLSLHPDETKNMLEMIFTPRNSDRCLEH
measuredParameter: inhibition at 1.5 µM (%)
Write down the numeric answer in % and omit the unit.

CCCCSC1=C2CCC3C4CCC(=O)C4(C)CCC3C2(C)CCC1=O (stereo not given)
18

Tell me its inhibition at 1.5 µM on Aromatase (Homo sapiens): CC12CCC3C(CCC4=C(SCc5ccccc5)C(=O)CCC43C)C1CCC2=O (stereo not given)
8

Tell me its inhibition at 1.5 µM on Aromatase (Homo sapiens): CC12CCC3C(CCC4=C(Sc5ccccc5)C(=O)CCC43C)C1CCC2=O (stereo not given)
68

Tell me its inhibition at 1.5 µM on Aromatase (Homo sapiens): C[C@]12CCC(=O)C(O)=C1CC[C@@H]1[C@@H]2CC[C@]2(C)C(=O)CC[C@@H]12
84

Tell me its inhibition at 1.5 µM on Aromatase (Homo sapiens): CSC1=C2CCC3C4CCC(=O)C4(C)CCC3C2(C)CCC1=O (stereo not given)
74

Tell me its inhibition at 1.5 µM on Aromatase (Homo sapiens): CC(=O)SC1=C2CCC3C4CCC(=O)C4(C)CCC3C2(C)CCC1=O (stereo not given)
58

Tell me its inhibition at 1.5 µM on Aromatase (Homo sapiens): CC12CCC3C(CCC4=C(Sc5ccc([N+](=O)[O-])cc5)C(=O)CCC43C)C1CCC2=O (stereo not given)
0

Tell me its inhibition at 1.5 µM on Aromatase (Homo sapiens): Cc1ccc(SC2=C3CCC4C5CCC(=O)C5(C)CCC4C3(C)CCC2=O)cc1 (stereo not given)
31

Tell me its inhibition at 1.5 µM on Aromatase (Homo sapiens): CC12CCC3C(CCC4=C(Sc5ccc(Br)cc5)C(=O)CCC43C)C1CCC2=O (stereo not given)
6

Tell me its inhibition at 1.5 µM on Aromatase (Homo sapiens): CC12CCC3C(CCC4=C(S)C(=O)CCC43C)C1CCC2=O (stereo not given)
63

----------
Ki values, listed per item
Molecular target: UniProt P11511
Sequence (P11511 whole entry): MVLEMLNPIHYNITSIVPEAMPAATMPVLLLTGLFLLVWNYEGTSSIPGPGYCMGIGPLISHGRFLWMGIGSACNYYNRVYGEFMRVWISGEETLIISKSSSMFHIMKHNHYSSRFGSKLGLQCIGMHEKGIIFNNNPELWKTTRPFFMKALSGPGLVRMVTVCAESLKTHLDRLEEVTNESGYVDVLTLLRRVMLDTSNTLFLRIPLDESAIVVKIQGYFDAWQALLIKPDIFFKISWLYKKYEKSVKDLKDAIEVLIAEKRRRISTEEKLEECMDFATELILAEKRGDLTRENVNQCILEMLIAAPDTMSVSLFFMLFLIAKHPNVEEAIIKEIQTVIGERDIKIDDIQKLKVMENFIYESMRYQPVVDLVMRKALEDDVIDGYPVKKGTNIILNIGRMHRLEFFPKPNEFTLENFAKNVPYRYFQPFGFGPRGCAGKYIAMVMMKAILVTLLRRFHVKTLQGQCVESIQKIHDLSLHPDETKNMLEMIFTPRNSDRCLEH
Write down the numeric answer in nM and omit the unit.

Known results for compounds:
CC12CCC3C(CCC4=C(Sc5ccc(N)cc5)C(=O)CCC43C)C1CCC2=O (stereo in doubt)
18
CCCSC1=C2CCC3C4CCC(=O)C4(C)CCC3C2(C)CCC1=O (configuration not stated)
65
CC(=O)SC1=C2CCC3C4CCC(=O)C4(C)CCC3C2(C)CCC1=O (configuration not stated)
73
C[C@]12CCC(=O)C(O)=C1CC[C@@H]1[C@@H]2CC[C@]2(C)C(=O)CC[C@@H]12
54
CSC1=C2CCC3C4CCC(=O)C4(C)CCC3C2(C)CCC1=O (configuration not stated)
59
CCSC1=C2CCC3C4CCC(=O)C4(C)CCC3C2(C)CCC1=O (configuration not stated)
41

Here's the next entry for you.
Determine its reported Ki: CC12CCC3C(CCC4=C(Sc5ccccc5)C(=O)CCC43C)C1CCC2=O (configuration not stated)
36

----------
Target: Aromatase (Homo sapiens, UniProt P11511)
Sequence (P11511 whole entry): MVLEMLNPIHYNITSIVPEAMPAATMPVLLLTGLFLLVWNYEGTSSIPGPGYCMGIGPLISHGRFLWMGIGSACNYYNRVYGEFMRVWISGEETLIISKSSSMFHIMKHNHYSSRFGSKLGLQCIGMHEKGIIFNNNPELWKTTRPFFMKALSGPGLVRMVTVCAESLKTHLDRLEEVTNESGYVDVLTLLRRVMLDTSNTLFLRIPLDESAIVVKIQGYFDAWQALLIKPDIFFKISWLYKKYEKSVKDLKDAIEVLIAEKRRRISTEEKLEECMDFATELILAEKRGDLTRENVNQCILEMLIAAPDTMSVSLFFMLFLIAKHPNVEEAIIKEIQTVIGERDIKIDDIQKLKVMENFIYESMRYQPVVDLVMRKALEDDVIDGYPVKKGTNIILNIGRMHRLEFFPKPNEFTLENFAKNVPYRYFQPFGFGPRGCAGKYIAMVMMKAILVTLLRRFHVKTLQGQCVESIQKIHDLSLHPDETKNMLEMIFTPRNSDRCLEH
Everything with inhibition at 0.25 µM lower than 20% is condition not met; everything else, including exactly 20%, is condition met.

Is the recorded value of inhibition at 0.25 µM equal to or greater than 20% for this molecule? CCCCSC1=C2CCC3C4CCC(=O)C4(C)CCC3C2(C)CCC1=O (stereo not given)
condition not met

Is the recorded value of inhibition at 0.25 µM equal to or greater than 20% for this molecule? CC(=O)OC1=C2CCC3C4CCC(=O)C4(C)CCC3C2(C)CCC1=O (stereo not given)
condition met

Is the recorded value of inhibition at 0.25 µM equal to or greater than 20% for this molecule? CC(=O)SC1=C2CCC3C4CCC(=O)C4(C)CCC3C2(C)CCC1=O (stereo not given)
condition not met

Is the recorded value of inhibition at 0.25 µM equal to or greater than 20% for this molecule? C[C@]12CCC(=O)C(O)=C1CC[C@@H]1[C@@H]2CC[C@]2(C)C(=O)CC[C@@H]12
condition met

Is the recorded value of inhibition at 0.25 µM equal to or greater than 20% for this molecule? COc1ccc(SC2=C3CCC4C5CCC(=O)C5(C)CCC4C3(C)CCC2=O)cc1 (stereo not given)
condition not met

Is the recorded value of inhibition at 0.25 µM equal to or greater than 20% for this molecule? CCCCCSC1=C2CCC3C4CCC(=O)C4(C)CCC3C2(C)CCC1=O (stereo not given)
condition not met

Is the recorded value of inhibition at 0.25 µM equal to or greater than 20% for this molecule? CCSC1=C2CCC3C4CCC(=O)C4(C)CCC3C2(C)CCC1=O (stereo not given)
condition met

Is the recorded value of inhibition at 0.25 µM equal to or greater than 20% for this molecule? CC12CCC3C(CCC4=C(Sc5ccc([N+](=O)[O-])cc5)C(=O)CCC43C)C1CCC2=O (stereo not given)
condition not met

Is the recorded value of inhibition at 0.25 µM equal to or greater than 20% for this molecule? CSC1=C2CCC3C4CCC(=O)C4(C)CCC3C2(C)CCC1=O (stereo not given)
condition met

Is the recorded value of inhibition at 0.25 µM equal to or greater than 20% for this molecule? CC12CCC3C(CCC4=C(SCc5ccccc5)C(=O)CCC43C)C1CCC2=O (stereo not given)
condition not met

Is the recorded value of inhibition at 0.25 µM equal to or greater than 20% for this molecule? CC12CCC3C(CCC4=C(Sc5ccccc5)C(=O)CCC43C)C1CCC2=O (stereo not given)
condition met

Is the recorded value of inhibition at 0.25 µM equal to or greater than 20% for this molecule? CCCSC1=C2CCC3C4CCC(=O)C4(C)CCC3C2(C)CCC1=O (stereo not given)
condition met

Is the recorded value of inhibition at 0.25 µM equal to or greater than 20% for this molecule? Cc1ccc(SC2=C3CCC4C5CCC(=O)C5(C)CCC4C3(C)CCC2=O)cc1 (stereo not given)
condition not met

Is the recorded value of inhibition at 0.25 µM equal to or greater than 20% for this molecule? CC12CCC3C(CCC4=C(S)C(=O)CCC43C)C1CCC2=O (stereo not given)
condition met

Is the recorded value of inhibition at 0.25 µM equal to or greater than 20% for this molecule? CC12CCC3C(CCC4=C(Sc5ccc(Br)cc5)C(=O)CCC43C)C1CCC2=O (stereo not given)
condition not met
